target: PAP (polyphosphate:AMP phosphotransferase) (Acinetobacter johnsonii, UniProt Q83XD3); construct: the PAP gene codes for the polypeptide (molecular weight: 55.8 kd) comprising 475 amino acids; made in house; host or cells: E. coli JM109 carrying plasmid pPAP2; test: Synthesis of NDP from NMP with PAP and polyphosphate, HPLC analysis; format: biochemical; conditions: 10 mM NMP, polyphosphate 30 mM, PAP 16 units/ml, 37° C., 30 minutes
Sequence (Q83XD3 whole entry): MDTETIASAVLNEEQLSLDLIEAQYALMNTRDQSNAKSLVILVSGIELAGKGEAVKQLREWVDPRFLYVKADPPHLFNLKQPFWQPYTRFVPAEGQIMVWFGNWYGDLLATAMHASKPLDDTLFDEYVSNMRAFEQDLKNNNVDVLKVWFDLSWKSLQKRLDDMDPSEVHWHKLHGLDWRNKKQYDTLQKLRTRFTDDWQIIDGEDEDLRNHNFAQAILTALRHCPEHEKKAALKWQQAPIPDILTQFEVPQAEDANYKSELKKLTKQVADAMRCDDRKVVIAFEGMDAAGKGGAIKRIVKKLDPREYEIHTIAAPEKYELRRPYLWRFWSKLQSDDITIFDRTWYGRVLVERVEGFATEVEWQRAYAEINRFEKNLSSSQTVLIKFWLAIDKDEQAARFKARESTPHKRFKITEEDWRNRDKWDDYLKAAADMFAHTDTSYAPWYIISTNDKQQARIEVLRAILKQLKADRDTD
reported property: NDP generated

Known results for compounds:
>>> result("O=c1ccn([C@@H]2O[C@H](COP(=O)(O)O)[C@@H](O)[C@H]2O)c(=O)[nH]1 [UMP]")
"0.85 mM UDP"
>>> result("Nc1nc2c(ncn2[C@@H]2O[C@H](COP(=O)(O)O)[C@@H](O)[C@H]2O)c(=O)[nH]1 [GMP]")
"7.16 mM GDP"
>>> result("Nc1ccn([C@@H]2O[C@H](COP(=O)(O)O)[C@@H](O)[C@H]2O)c(=O)n1 [CMP]")
"0.98 mM CDP"

Shift focus to the following entry.
Just so you know, measured NDP generated for Nc1ncnc2c1ncn2[C@@H]1O[C@H](COP(=O)(O)O)[C@@H](O)[C@H]1O [AMP, adenosine 5′-monophosphate] came out at 6.76 mM ADP

* * *

biological target: PAP (polyphosphate:AMP phosphotransferase) (Acinetobacter johnsonii, UniProt Q83XD3); construct: the PAP gene codes for the polypeptide (molecular weight: 55.8 kd) comprising 475 amino acids; made in house; host or cells: E. coli JM109 carrying plasmid pPAP2; test: Substrate specificity of PAP: NDP or dNDP produced from NMP or dNMP, measured by HPLC; format: biochemical; settings: relative to phosphorylation of AMP = 100%; 5 mM NMP or dNMP, polyphosphate 10 mM, 100 mM MgCl2, pH 8.0, 37° C., 10 minutes
Rule: Specific activity (relative value) under 0.1% gives no (0), otherwise yes (1).

# count of solved cases: 7
>>> group_label("Nc1ccn([C@@H]2O[C@H](COP(=O)(O)O)[C@@H](O)[C@H]2O)c(=O)n1 [CMP]")
"no (0)"
>>> group_label("Nc1nc2c(ncn2[C@@H]2O[C@H](COP(=O)(O)O)[C@@H](O)[C@H]2O)c(=O)[nH]1 [GMP]")
"yes (1)"
>>> group_label("Nc1nc2c(ncn2[C@H]2C[C@H](O)[C@@H](COP(=O)(O)O)O2)c(=O)[nH]1 [dGMP]")
"yes (1)"
>>> group_label("Nc1ncnc2c1ncn2[C@H]1C[C@H](O)[C@@H](COP(=O)(O)O)O1 [dAMP]")
"yes (1)"
>>> group_label("O=c1ccn([C@@H]2O[C@H](COP(=O)(O)O)[C@@H](O)[C@H]2O)c(=O)[nH]1 [UMP]")
"yes (1)"
>>> group_label("Nc1ncnc2c1ncn2[C@@H]1O[C@H](COP(=O)(O)O)[C@@H](O)[C@H]1O [AMP, adenosine 5′-monophosphate]")
"yes (1)"
>>> group_label("Nc1ccn([C@H]2C[C@H](O)[C@@H](COP(=O)(O)O)O2)c(=O)n1 [dCMP]")
"no (0)"

Kindly consider the entry below.
Challenge: Could you verify whether the entry Cc1cn([C@H]2C[C@H](O)[C@@H](COP(=O)(O)O)O2)c(=O)[nH]c1=O [TMP] shows Specific activity (relative value) of no less than 0.1%?
Response given: no (0)

These measurements were taken from patent US7329522B2.
